Numbers sourced from PubChem BioAssay AID1159580.

# Lookup of reported normalized growth keyed by entry
assay_text: chemical genetic growth profiling, strain panel (AID 1159580);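 further: tested at 20 µM; growth read once vehicle control cultures reached saturation at 30 °C; 1 = growth at the plate median or of vehicle wells; lower values mean less growth of the strain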
particulars: S. cerevisiae deletion strains, growth OD, locus YCL069W, strain vba3, active compounds read low
Out of some 5,500 compounds screened, about 2,000 (36%) were called active. About 18% were inconclusive and are not listed. This is one part of the list.
endpoint: normalized growth

molecule | assay_value
Cc1ccc(N=CN(C)C=Nc2ccc(C)cc2C)c(C)c1 | 0.979
CCC(C)C(NC)C(=O)O (configuration not stated) | 1.02
COc1cc(C(=O)NCCCCCC(=O)O)cc(OC)c1OC | 0.984
NCCC(=O)N[C@@H](Cc1cnc[nH]1)C(=O)O | 1.01
COc1ccc2c3c([nH]c2c1)C(C)=NCC3 | 1.01
C/C=C1\[C@H]2C=C(C)C[C@]1(N)c1ccc(=O)[nH]c1C2 | 1.02
Nc1c2c(nc3ccccc13)CCCC2O (configuration not stated) | 1.01

###

assay_text: chemical genetic growth profiling, strain panel (AID 1159580);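 further: tested at 20 µM; growth read once vehicle control cultures reached saturation at 30 °C; 1 = growth at the plate median or of vehicle wells; lower values mean less growth of the strain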
particulars: S. cerevisiae deletion strains, growth OD, locus YFR010W, strain ubp6, active compounds read low
Among all 5,500 compounds or so, about 2,000 (36%) were called active. Roughly 18% stayed inconclusive and do not appear here. The list shows a part of the results. Where a SMILES comes first, the peptide text is derived from it. Bridges are numbered along the chain shown (N, C = ends). [ ]: non-standard residue; d: D form. The star is where a group is joined. ξ: configuration not given here. ξDab(CH2SO3H) = NC(CCNCS(=O)(=O)O)C(=O)O; Heptanoyl(6-Me) = CC(C)CCCCC(=O)*; Dab = NCC[CH](N)C(=O)O
# Lookup of reported normalized growth keyed by entry

molecule | normalized growth
Cc1ccnc(NS(=O)(=O)c2ccc(N)cc2)n1 | 1.02
CC(C)=CCCC1(C)C=Cc2c(O)c3c(c(CC=C(C)C)c2O1)OC12C(=CCCC1C(C)(C)O[C@@]2(C/C=C(\C)C(=O)O)C(=O)O)C3=O (stereo not given in full) | 0.919
NCCC(=O)N[C@@H](Cc1cnc[nH]1)C(=O)O | 1.02
C[C@@H]1CC[C@]2(C(=O)O)CC[C@]3(C)C(=CCC4[C@@]5(C)CC[C@H](O)C(C)(C)C5CC[C@]43C)C2[C@H]1C (stereo not given in full) | 0.983
O=c1ccc2ccc(O)cc2o1 | 0.976
O=C1c2c(O)cccc2Cc2cccc(O)c21 | 0.957
COc1ccc2[nH]cc(CCN)c2c1 | 0.979
CCC(C)C1NC(=O)C(CCNCS(=O)(=O)O)NC(=O)C(NC(=O)C(CCNCS(=O)(=O)O)NC(=O)C(NC(=O)C(CCNCS(=O)(=O)O)NC(=O)CCCCC(C)C)C(C)O)CCNC(=O)C(C(C)O)NC(=O)C(CCNCS(=O)(=O)O)NC(=O)C(CCNCS(=O)(=O)O)NC(=O)C(C(C)CC)NC1=O (stereo not given) ({Heptanoyl(6-Me)}-[ξDab(CH2SO3H)]T[ξDab(CH2SO3H)][Dab][ξDab(CH2SO3H)]II[ξDab(CH2SO3H)][ξDab(CH2SO3H)]T; lactam 4-C; configuration not given here) | 0.979
CC1(C)CC[C@]2(C)CC[C@]3(C)C(=CCC4[C@@]5(C)CC[C@H](O)C(C)(C)C5CC[C@]43C)C2C1 (stereo not given in full) | 1.01
CC(C)=CCCC1(C)C=Cc2c(O)c3c(c(CC=C(C)C)c2O1)OC12C(=CC4CC1C(C)(C)OC2(C/C=C(/C)C(=O)O)C4=O)C3=O (stereo not given) | 0.891
CC(C)(Sc1cc(C(C)(C)C)c(O)c(C(C)(C)C)c1)Sc1cc(C(C)(C)C)c(O)c(C(C)(C)C)c1 | 1.04
CC1OC(=O)C(C(C)C)NC(=O)C(C(C)C)OC(=O)C(C(C)C)NC(=O)C(C)OC(=O)C(C(C)C)NC(=O)C(C(C)C)OC(=O)C(C(C)C)NC(=O)C(C)OC(=O)C(C(C)C)NC(=O)C(C(C)C)OC(=O)C(C(C)C)NC1=O (stereo not given) | 0.535
C/C=C(/C)C(=O)O[C@@H]1[C@H](OC(C)=O)[C@@]2(CO)C(CC1(C)C)C1=CCC3[C@@]4(C)CC[C@H](O[C@@H]5O[C@H](C(=O)O)[C@@H](O[C@@H]6O[C@H](CO)[C@@H](O)[C@H](O)[C@H]6O)[C@H](O)[C@H]5O[C@@H]5O[C@H](CO)[C@@H](O)[C@H](O)[C@H]5O)[C@](C)(CO)C4CC[C@@]3(C)[C@]1(C)C[C@H]2O (stereo not given in full) | 0.991
O=c1oc2cc(O)ccc2s1 | 0.978
Nc1c2ccccc2nc2ccccc12 | 0.615

###

assay_text: chemical genetic growth profiling, strain panel (AID 1159580);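 further: tested at 20 µM; growth read once vehicle control cultures reached saturation at 30 °C; 1 = growth at the plate median or of vehicle wells; lower values mean less growth of the strain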
particulars: S. cerevisiae deletion strains, growth OD, locus YHR094C, strain hxt1, active compounds read low
The whole screen tested about 5,500 compounds, of which about 2,000 (36%) were called active. Roughly 18% stayed inconclusive and do not appear here. This is one part of the list.

compound | normalized growth
COc1ccc2c3c([nH]c2c1)C(C)=NCC3 | 0.991
C[C@@H]1C(=O)O[C@H]2[C@H]1CC[C@@]1(C)C=CC(=O)[C@@]3(C)O[C@@]213 | 1
C[C@@H]1CC[C@H]2[C@@H](C)C(=O)O[C@@H]3O[C@@]4(C)CC[C@@H]1[C@]32OO4 | 0.94
CC1C(=O)OC2C1CCC1(C)C=CC(=O)C3(C)OC213 (stereo unspecified) | 0.999
NNc1nncc2ccccc12 | 0.997
Cc1ccc(-c2cc(C(F)(F)F)nn2-c2ccc(S(N)(=O)=O)cc2)cc1 | 1.01
CC(C)(C#N)O[C@@H]1O[C@H](CO)[C@@H](O)[C@H](O)[C@H]1O | 0.984
Nc1c2c(nc3ccccc13)CCCC2O (stereo unspecified) | 0.992
O=c1[nH]cc(F)c(=O)[nH]1 | 0.944
CC1=CCC2C3(C)C1=CC(=O)OC3CC1C(C)(C)CC(O)C(O)C12C (stereo unspecified) | 0.99
C[C@@H]1CC[C@H]2[C@@H](C)C(O)O[C@@H]3O[C@@]4(C)CC[C@@H]1[C@]32OO4 (stereo partly specified) | 0.388

###

assay_text: chemical genetic growth profiling, strain panel (AID 1159580);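 further: tested at 20 µM; growth read once vehicle control cultures reached saturation at 30 °C; 1 = growth at the plate median or of vehicle wells; lower values mean less growth of the strain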
particulars: S. cerevisiae deletion strains, growth OD, locus YGR252W, strain gcn5, active compounds read low
Among all 5,500 compounds or so, about 2,000 (36%) were called active. Another 18% or so got no clear call; they are omitted. The list shows a part of the results. Where a SMILES comes first, the peptide text is derived from it. Bridges are numbered along the chain shown (N, C = ends). [ ]: non-standard residue; d: D form. The star is where a group is joined. ξ: configuration not given here. ξDab(CH2SO3H) = NC(CCNCS(=O)(=O)O)C(=O)O; Heptanoyl(6-Me) = CC(C)CCCCC(=O)*; Dab = NCC[CH](N)C(=O)O; For = O=C*

compound | normalized growth
C/C=C1\[C@H]2C=C(C)C[C@]1(N)c1ccc(=O)[nH]c1C2 | 1.01
O=C1c2c(O)cccc2Cc2cccc(O)c21 | 1.02
C#C[C@]1(O)CCC2C3CCC4=C(CCC(=O)C4)C3CC[C@@]21C (stereo partly drawn) | 0.893
O=C1C(O)=C(O)C(=O)C(O)=C1O | 1.04
COc1cccc(OC)c1OCCNCC1COc2ccccc2O1 (stereo not drawn) | 0.907
CSCCC(NC=O)C(=O)NC(Cc1ccccc1)C(=O)O (stereo not drawn) (For-Met-Phe-OH; configuration not given here) | 1.03
C#C[C@]1(O)CCC2C3CCC4=CC(=O)CC[C@@H]4C3CC[C@@]21C (stereo partly drawn) | 0.978
CC1=CCC2C3(C)C1=CC(=O)OC3CC1C(C)(C)CC(O)C(O)C12C (stereo not drawn) | 0.96
COC(=O)C[C@H]1C(C)(C)C(=O)[C@@H]2CC3C4=CC(=O)O[C@@H](c5ccoc5)[C@]4(C)CCC3[C@@]1(C)C2=O (stereo partly drawn) | 1.04
Cc1ccc(S(=O)(=O)NC(=O)NN2CC3CCCC3C2)cc1 (stereo not drawn) | 1.05
COC(=O)Nc1nc2ccc(Sc3ccccc3)cc2[nH]1 | 0.895
Cc1cc(O)c2c(c1)Cc1cccc(O)c1C2=O | 0.914
C[C@]12CCC(=O)C=C1CCC1C2[C@@H](O)C[C@@]2(C)C1CC[C@]2(O)C(=O)CO (stereo partly drawn) | 1.02
O=C(O)/C=C1\CCCc2ccccc2C1O (stereo not drawn) | 0.962
NNC(=O)c1ccncc1 | 0.943
CCC(C)C1NC(=O)C(CCNCS(=O)(=O)O)NC(=O)C(NC(=O)C(CCNCS(=O)(=O)O)NC(=O)C(NC(=O)C(CCNCS(=O)(=O)O)NC(=O)CCCCC(C)C)C(C)O)CCNC(=O)C(C(C)O)NC(=O)C(CCNCS(=O)(=O)O)NC(=O)C(CCNCS(=O)(=O)O)NC(=O)C(C(C)CC)NC1=O (stereo not drawn) ({Heptanoyl(6-Me)}-[ξDab(CH2SO3H)]T[ξDab(CH2SO3H)][Dab][ξDab(CH2SO3H)]II[ξDab(CH2SO3H)][ξDab(CH2SO3H)]T; lactam 4-C; configuration not given here) | 1.1
N[C@H](C(=O)O)[C@@H]1CC(Cl)=NO1 | 0.508
CC1(C)CC[C@]2(C(=O)O)CC[C@]3(C)C(=CCC4[C@@]5(C)CC[C@@H](O)C(C)(C)C5CC[C@]43C)C2C1 (stereo partly drawn) | 0.944
